Conditions: a range is the spread between reports
Each entry below carries its recorded melting point.
assay-metric: melting point

>  <compound>
O=C(CCC(=O)OCc1ccccc1)OCc1ccccc1

>  <result>
45 to 49.5 °C

$$$$
>  <compound>
OCc1cccc(Oc2ccccc2)c1

>  <result>
6 to 10 °C

$$$$
>  <compound>
c1cc[nH]c1

>  <result>
-23.4 °C

$$$$
>  <compound>
O=[N+]([O-])c1cccc2cccc([N+](=O)[O-])c12

>  <result>
172 to 173 °C

$$$$
>  <compound>
O=C(O)CC(O)C(=O)O (stereo unspecified)

>  <result>
130 to 132 °C

$$$$
>  <compound>
O=Cc1ccc2c(c1)OCO2

>  <result>
36 to 37 °C

$$$$
>  <compound>
O=C(O)/C=C/c1ccccc1[N+](=O)[O-]

>  <result>
244 to 247 °C

$$$$
>  <compound>
CN1C(=O)C(=O)c2ccccc21

>  <result>
131 to 132 °C

$$$$
>  <compound>
Cc1ccccc1Cc1ccccc1

>  <result>
6.6 to 7 °C

$$$$
>  <compound>
N#CCC(N)=O

>  <result>
120 to 122 °C

$$$$
>  <compound>
CCc1ccc(Cl)cc1

>  <result>
-63 to -62.6 °C

$$$$
>  <compound>
O=[N+]([O-])c1cccc([N+](=O)[O-])c1Cl

>  <result>
86 to 88 °C

$$$$
>  <compound>
N#Cc1ccncc1

>  <result>
76 to 79 °C

$$$$
>  <compound>
CCCCCCCO

>  <result>
-36 to -33.2 °C

$$$$
>  <compound>
C1CCOCC1

>  <result>
-49 to -45 °C

$$$$
>  <compound>
O=[N+]([O-])c1cc(Cl)ccc1Cl

>  <result>
55 to 56 °C

$$$$
>  <compound>
Nc1ccc(O)cc1

>  <result>
188 to 189 °C

$$$$
>  <compound>
O=C(O)CCC(=O)c1ccc(-c2ccccc2)cc1

>  <result>
186 °C

$$$$
>  <compound>
CCNc1nc(NC(C)(C)C)nc(SC)n1

>  <result>
104 to 105 °C

$$$$
>  <compound>
CCOC(=O)c1csc(C)n1

>  <result>
55 to 57 °C

$$$$
>  <compound>
O=C(O)c1ccccc1-c1ccccc1C(=O)O

>  <result>
229 to 234 °C

$$$$
>  <compound>
O=C(Cl)c1cccc([N+](=O)[O-])c1

>  <result>
33 to 36 °C

$$$$
>  <compound>
Nc1ccc(Cc2ccc(N)cc2)cc1

>  <result>
90 to 92.5 °C

$$$$
>  <compound>
COc1cccc([N+](=O)[O-])c1

>  <result>
38 to 38.5 °C

$$$$
>  <compound>
COC1=C(OC)C(=O)C(C)=CC1=O

>  <result>
58.5 to 59.5 °C

$$$$
>  <compound>
Clc1cccc(Cl)n1

>  <result>
86 to 88 °C

$$$$
>  <compound>
CC=C(C)C(C)C

>  <result>
-124 °C

$$$$
>  <compound>
O=C(O)c1ccnc2ccccc12

>  <result>
254 °C

$$$$
>  <compound>
O=C(O)c1ccc(Cl)c([N+](=O)[O-])c1

>  <result>
182 to 183 °C

$$$$
>  <compound>
c1ccc(-c2ncc[nH]2)cc1

>  <result>
148 to 149 °C

$$$$
>  <compound>
O=S1(=O)CCCC1

>  <result>
27 to 27.6 °C

$$$$
